- tested.target: T1, soluble cynomolgus macaque PD-1 extracellular domain (cynomolgus macaque, UniProt B0LAJ3 25-170)
- T1 construct: also called Cyno PD-1; cynomolgus PD-1
- T1 sequence (B0LAJ3 entry or part of it limits assumed): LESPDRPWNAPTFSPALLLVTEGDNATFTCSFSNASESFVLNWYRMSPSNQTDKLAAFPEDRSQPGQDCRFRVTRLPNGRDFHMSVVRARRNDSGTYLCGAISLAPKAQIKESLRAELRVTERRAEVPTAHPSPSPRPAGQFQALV
- measurement.notes: SPR (Biacore 8K), 37 C, antibody captured via anti-human IgG, soluble PD-1 ECD as analyte, single cycle kinetics
Kindly supply the reported pKd values for the records listed here.
pKd here: minus log base 10 of the concentration, concentration in moles per litre.

QUERY: State, in one line, measured pKd of humCL19v16 (antibody, human IgG1, V domains shown, hu-VH4 + hu-VL4; human IgG1 kappa isotype) VH: QVQLVQSGSELKKPGASVKVSCKAFGYTFTTYPIEWVRQAPGQGLEWMGNFHPYNDDTKYNEGFTGRFVFSVDKSVTTVYLQISSLKAEDTAVYYCARENYGSHGGFVYWGQGTLVTVSS VL: ENVLTQSPATLSLSPGERATLSCRASSSVISSYLHWYQQKPGQAPRLLIYSTSNRATGIPARFSGSGSGTDYTLTISSLEPEDFAVYYCQQYNSYPLTFGGGTKLEIK
RESULT: 6.05

QUERY: In one line, give reported pKd of the entry humCL19v4 (antibody, human IgG1, V domains shown, hu-VH1 + hu-VL4; human IgG1 kappa isotype) VH: QVQLVQSGAEVKKPGASVKVSCKAFGYTFTTYPIEWMRQAPGKGLEWIGNFHPYNDDTKYNEKFQGRVTLTVDKSSTTVYMELSSLRSEDTAVYYCARENYGSHGGFVYWGQGTLVTVSS VL: ENVLTQSPATLSLSPGERATLSCRASSSVISSYLHWYQQKPGQAPRLLIYSTSNRATGIPARFSGSGSGTDYTLTISSLEPEDFAVYYCQQYNSYPLTFGGGTKLEIK .
RESULT: 6.70

QUERY: Give the reported pKd for this binder. humCL19v8 (antibody, human IgG1, V domains shown, hu-VH2 + hu-VL4; human IgG1 kappa isotype) VH: QVQLVQSGAEVKKPGASVKVSCKAFGYTFTTYPIEWVRQAPGKGLEWMGNFHPYNDDTKYNEKFQGRVTMTVDKSTTTVYMELSSLRSEDTAVYYCARENYGSHGGFVYWGQGTLVTVSS VL: ENVLTQSPATLSLSPGERATLSCRASSSVISSYLHWYQQKPGQAPRLLIYSTSNRATGIPARFSGSGSGTDYTLTISSLEPEDFAVYYCQQYNSYPLTFGGGTKLEIK
RESULT: 6.43

QUERY: Complete the entry with pKd for humCL19v5 (antibody, human IgG1, V domains shown, hu-VH2 + hu-VL1; human IgG1 kappa isotype) VH: QVQLVQSGAEVKKPGASVKVSCKAFGYTFTTYPIEWVRQAPGKGLEWMGNFHPYNDDTKYNEKFQGRVTMTVDKSTTTVYMELSSLRSEDTAVYYCARENYGSHGGFVYWGQGTLVTVSS VL: ENQLTQSPSSLSASVGDRVTITCRASSSVISSYLHWYQQKPGKAPKLLIYSTSNLASGVPSRFSGSGSGTDYTLTISSLQPEDFATYYCQQYNSYPLTFGGGTKLEIK
RESULT: 6.36

QUERY: Give pKd for the following binder: humCL19v12 (antibody, human IgG1, V domains shown, hu-VH3 + hu-VL4; human IgG1 kappa isotype) VH: QVQLVQSGSELKKPGASVKVSCKAFGYTFTTYPIEWMRQAPGQGLEWIGNFHPYNDDTKYNEGFTGRFVLSVDKSSTTVYLQISSLKAEDTAVYYCARENYGSHGGFVYWGQGTLVTVSS VL: ENVLTQSPATLSLSPGERATLSCRASSSVISSYLHWYQQKPGQAPRLLIYSTSNRATGIPARFSGSGSGTDYTLTISSLEPEDFAVYYCQQYNSYPLTFGGGTKLEIK
RESULT: 6.60
